Cited source for all entries: patent US5998142

- Target Desc: bradykinin (BK) (UniProt P01042 P01042:381-389)
- Sequence (P01042 whole entry, looked up, one chain of several): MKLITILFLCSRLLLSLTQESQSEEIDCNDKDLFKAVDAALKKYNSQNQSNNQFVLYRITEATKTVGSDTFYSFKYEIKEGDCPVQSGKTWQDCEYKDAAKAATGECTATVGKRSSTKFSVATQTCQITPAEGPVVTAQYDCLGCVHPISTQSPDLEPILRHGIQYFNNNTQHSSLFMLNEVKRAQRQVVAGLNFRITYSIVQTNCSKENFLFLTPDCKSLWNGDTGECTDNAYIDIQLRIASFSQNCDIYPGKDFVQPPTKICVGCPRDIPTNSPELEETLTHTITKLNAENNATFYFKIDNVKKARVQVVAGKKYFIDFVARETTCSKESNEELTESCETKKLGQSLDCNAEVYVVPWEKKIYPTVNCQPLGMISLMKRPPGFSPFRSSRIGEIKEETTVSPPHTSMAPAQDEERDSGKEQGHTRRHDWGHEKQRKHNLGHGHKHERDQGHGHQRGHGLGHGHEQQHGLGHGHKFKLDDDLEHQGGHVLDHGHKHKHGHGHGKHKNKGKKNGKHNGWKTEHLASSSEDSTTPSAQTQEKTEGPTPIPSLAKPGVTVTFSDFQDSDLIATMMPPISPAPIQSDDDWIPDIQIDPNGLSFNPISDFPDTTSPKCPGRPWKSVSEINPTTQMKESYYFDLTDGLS
- Assay Explanation: competition; inhibition of reaction of 12.1 with BrBK; +/-60
- Test Context: tags: native peptide
Assay Readout: Ki (µM)

Binder: 12.1 (ssRNA, 5'-GMPS) RNA: GGGAGCUCAGAAUAAACGCUCAAAGCUGUUGGCAGCGCUGGUGAAGGGAUAGGCUUCGACAUGAGGCCCGGAUCCGGC
Unit Name: µM
Recorded Value: 140
